Test method notes: qHTS of pediatric cancer cell lines to identify multiple opportunities for drug repurposing: Confirmatory screen for Rh18 cells (AID 1347125);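 note: cells exposed to compound for 48 h; nearly all actives have a fitted effect of over 55% in size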
Condition set: Rh18 rhabdomyosarcoma cells, viability; series mostly up to 45.9 µM
Inconclusive results are not listed. The source made the active and inactive calls. Calls come from the whole dose curve; as a rule, active = well fitted cell-killing curve with a large enough effect; inconclusive = small, poorly fitted or top-dose-only effect, or effect the other way; inactive = flat fitted curve, though single readings scatter.
Outcome codes: active, inactive

INSERT INTO measurements (smiles_structure, class_assignment) VALUES
  ('CNCc1ccc(-c2[nH]c3cc(F)cc4c3c2CCNC4=O)cc1', 'inactive'),
  ('O=C(NOC[C@H](O)CO)c1ccc(F)c(F)c1Nc1ccc(I)cc1F', 'inactive'),
  ('Oc1cccc(-c2nc(N3CCOCC3)c3oc4ncccc4c3n2)c1', 'active'),
  ('Cc1cn[nH]c1', 'inactive'),
  ('C[C@]1(c2nc3c(C(N)=O)cccc3[nH]2)CCCN1', 'inactive'),
  ('COc1cc2nccc(Oc3ccc(NC(=O)NC4CC4)c(Cl)c3)c2cc1C(N)=O', 'active'),
  ('Nc1nc2[nH]cc(CCc3ccc(C(=O)N[C@@H](CCC(=O)O)C(=O)O)cc3)c2c(=O)[nH]1', 'inactive'),
  ('CS(=O)(=O)c1ccc(C(=O)Nc2ccc(Cl)c(-c3ccccn3)c2)c(Cl)c1', 'inactive'),
  ('Cc1c(CN2CCN(C(=O)C(C)C)CC2)sc2c(N3CCOCC3)nc(-c3cnc(N)nc3)nc12', 'active'),
  ('OC[C@H](Cc1ccccc1)Nc1nc(Oc2ccc3c(c2)CCC3)nc2c1ncn2Cc1ccc(-c2ccccc2)cc1', 'inactive'),
  ('O=C(c1cc(Cc2n[nH]c(=O)c3ccccc23)ccc1F)N1CCN(C(=O)C2CC2)CC1', 'inactive'),
  ('Nc1nc2c(ncn2COCCO)c(=O)[nH]1', 'inactive');

----------
Test method notes: Quantitative High-Throughput drug screen in 47 multiple myeloma cell lines against the NCATS MIPE library collection: KHM11_PLB cell viability assay (AID 1918962); note: nearly all actives have a fitted effect of over 35% in size
Condition set: KHM11 myeloma cell viability, CellTiter-Glo ATP luminescence, 48 h; series mostly up to 45.8 µM
Source text: PI: Beverly A. Mock Ph.D. Laboratory of Cancer Biology and Genetics, Center for Cancer Research, National Cancer Institute, National Institute of Health, Bethesda, Maryland […] 5; Detector; 425V; Luminescence; Viewlux PerkinElmer. […] 1. […] Briefly, the corresponding myeloma cell lines were screened in 1,536-well plates with 500 cells, 5-uL per well for inhibition of cell viability (assessed by measuring ATP levels with CellTiterGlo). […]
Records with an inconclusive call do not appear. The source made the active and inactive calls. Calls come from the whole dose curve; as a rule, active = well fitted cell-killing curve with a large enough effect; inconclusive = small, poorly fitted or top-dose-only effect, or effect the other way; inactive = no such curve, though single readings can be large or run the other way.
Outcomes: 1 (active), -1 (inactive)

INSERT INTO assay_data (molecule, class_assignment) VALUES
  ('Nc1nc2c(ncn2COCCO)c(=O)[nH]1', -1),
  ('CC(C)(C)NCC(O)c1ccc(O)c(CO)c1 (stereo not drawn)', -1),
  ('O=C(C1CC1)N1CC[C@@H](Cn2c(-c3ccc(-c4ccc5occc5c4)cc3)nc3cnccc32)C1', -1),
  ('CCC(C)N(C)C(=O)c1cc2ccccc2c(-c2ccccc2Cl)n1 (stereo not drawn)', -1),
  ('CCC(C)(C)C(=O)O[C@H]1C[C@@H](C)C=C2C=C[C@H](C)[C@H](CC[C@@H]3C[C@@H](O)CC(=O)O3)[C@H]21', 1),
  ('COc1nc(-c2ccc3c(c2)OCO3)n(-c2ccc(NC(=O)CSc3ccccc3)cc2)n1', -1),
  ('Cc1cc(C=c2sc3nc4ccccc4n3c2=O)c(C)n1-c1ccccc1', 1),
  ('CCN(c1ccccc1)c1cc(NC)[n+](C)c(C)n1', 1);
